Molecular target: Serine/threonine-protein kinase B-raf (Homo sapiens, UniProt P15056, V600E)
Sequence (P15056 2-766 V600E limits assumed): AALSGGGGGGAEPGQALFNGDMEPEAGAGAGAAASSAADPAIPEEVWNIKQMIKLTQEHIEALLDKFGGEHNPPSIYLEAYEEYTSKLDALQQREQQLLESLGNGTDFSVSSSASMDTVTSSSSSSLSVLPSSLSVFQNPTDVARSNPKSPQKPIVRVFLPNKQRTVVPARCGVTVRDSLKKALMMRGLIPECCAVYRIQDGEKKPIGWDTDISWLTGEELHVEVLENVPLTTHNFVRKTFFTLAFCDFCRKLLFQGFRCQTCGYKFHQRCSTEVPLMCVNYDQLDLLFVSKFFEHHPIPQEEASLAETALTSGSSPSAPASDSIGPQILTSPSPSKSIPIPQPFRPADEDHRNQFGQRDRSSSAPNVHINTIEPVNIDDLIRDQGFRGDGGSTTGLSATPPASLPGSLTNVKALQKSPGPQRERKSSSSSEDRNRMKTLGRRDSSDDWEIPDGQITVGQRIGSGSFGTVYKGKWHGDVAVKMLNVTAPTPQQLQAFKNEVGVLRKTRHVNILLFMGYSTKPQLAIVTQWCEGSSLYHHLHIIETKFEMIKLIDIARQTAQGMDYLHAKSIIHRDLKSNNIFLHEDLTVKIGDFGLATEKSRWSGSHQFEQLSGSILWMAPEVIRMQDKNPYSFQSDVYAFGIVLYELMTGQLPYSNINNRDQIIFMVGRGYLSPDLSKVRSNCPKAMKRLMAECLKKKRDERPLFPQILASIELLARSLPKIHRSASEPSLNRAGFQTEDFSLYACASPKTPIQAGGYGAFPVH
Assay: Inhibition of B-Raf V600E mutant in human Malme-3M cells assessed as basal ERK phosphorylation
Assay type: cell-based
pIC50: −log10 of the molar value.
readout: pIC50

Below are worked cases with known answers.
CCCS(=O)(=O)Nc1ccc(Cl)c(Oc2ccc3ncn(C)c(=O)c3c2)c1C#N
7.82
CCCS(=O)(=O)Nc1ccc(F)c(Nc2ccc3ncn(C)c(=O)c3c2)c1F
7.26
CCCS(=O)(=O)Nc1cccc(Nc2ccc3ncn(C)c(=O)c3c2)c1C#N
8.22

[1] CCCS(=O)(=O)Nc1ccc(F)c(Nc2ccc3ncncc3c2)c1F
[2] CCCS(=O)(=O)Nc1ccc(F)c(N(C)c2ccc3ncn(C)c(=O)c3c2)c1F
Identify the item whose pIC50 is the smaller number: 1 or 2 Your answer should be the label attached to the chosen record.
1
(1: 6.93, 2: 7.21)
